Target: squalene synthetase (Homo sapiens, UniProt P37268)
Construct: This suspension was used as the enzyme solution; endogenous in cells; membrane fraction (105000×g sediment) of the sonicate
Sequence (P37268 whole entry): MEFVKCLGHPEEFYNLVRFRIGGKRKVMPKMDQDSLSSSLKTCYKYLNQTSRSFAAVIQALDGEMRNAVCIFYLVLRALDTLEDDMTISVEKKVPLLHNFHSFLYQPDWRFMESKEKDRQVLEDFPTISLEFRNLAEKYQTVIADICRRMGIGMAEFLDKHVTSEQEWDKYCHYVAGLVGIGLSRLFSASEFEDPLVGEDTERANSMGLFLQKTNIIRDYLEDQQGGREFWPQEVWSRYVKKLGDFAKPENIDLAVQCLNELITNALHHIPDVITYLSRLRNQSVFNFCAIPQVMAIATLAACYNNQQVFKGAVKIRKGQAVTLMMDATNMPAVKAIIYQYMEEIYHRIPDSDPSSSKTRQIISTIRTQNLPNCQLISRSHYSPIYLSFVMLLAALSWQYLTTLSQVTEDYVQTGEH
Experiment: Squalene synthetase inhibitory activity (human-derived enzyme prepared from HepG2 cells)
Settings: [1-3H] farnesyl pyrophosphate, 37° C., 45 minutes, read-out: Inhibitory Activity (IC50, 10^−9 M)
Reported IC50 values follow for various compounds
measured.metric: IC50 (nM)

COc1cccc([C@H]2O[C@H](CC(=O)N3CCC(CC(=O)O)CC3)C(=O)N(CC(C)(C)C)c3ccc(Cl)cc32)c1OC :: 22
COc1cccc([C@H]2O[C@H](CC(=O)N[C@H](C(=O)O)C(C)C)C(=O)N(CC(C)(C)C)c3ccc(Cl)cc32)c1OC :: 15
COc1cccc([C@H]2O[C@H](CC(=O)N[C@@H](CCC(=O)O)C(=O)O)C(=O)N(CC(C)(C)C)c3ccc(Cl)cc32)c1OC :: 11
COc1cccc([C@H]2O[C@H](CC(=O)N[C@@H](Cc3ccccc3)C(=O)O)C(=O)N(CC(C)(C)C)c3ccc(Cl)cc32)c1OC :: 19
COc1cccc([C@H]2O[C@H](Cc3nc(=O)o[nH]3)C(=O)N(CC(C)(C)C)c3ccc(Cl)cc32)c1OC :: 12
COc1cccc([C@H]2O[C@H](CC(=O)N3CCC(O)(CC(=O)O)CC3)C(=O)N(CC(C)(C)C)c3ccc(Cl)cc32)c1OC :: 17
COc1cccc([C@H]2O[C@H](CC(=O)NS(C)(=O)=O)C(=O)N(CC(C)(CO)CO)c3ccc(Cl)cc32)c1OC :: 48
COc1cccc([C@H]2O[C@H](CC(=O)N3CCC(CP(=O)(O)O)CC3)C(=O)N(CC(C)(C)C)c3ccc(Cl)cc32)c1OC :: 12
COc1cccc([C@H]2O[C@H](CC(=O)N3CCC(Cc4nnn[nH]4)CC3)C(=O)N(CC(C)(C)C)c3ccc(Cl)cc32)c1OC :: 17
COc1cccc([C@H]2O[C@H](CC(=O)N3CCC(O)(C(=O)O)CC3)C(=O)N(CC(C)(C)C)c3ccc(Cl)cc32)c1OC :: 18
COc1cccc([C@H]2O[C@H](CC(=O)NS(=O)(=O)c3ccccc3)C(=O)N(CC(C)(C)C)c3ccc(Cl)cc32)c1OC :: 9.3
CCS(=O)(=O)NC(=O)C[C@H]1O[C@H](c2cccc(OC)c2OC)c2cc(Cl)ccc2N(CC(C)(C)C)C1=O :: 9.3
COc1cccc([C@H]2O[C@H](CC(=O)NCP(=O)(O)O)C(=O)N(CC(C)(C)C)c3ccc(Cl)cc32)c1OC :: 8.5
COc1cccc([C@H]2O[C@H](CC(=O)N3CCC(=CC(=O)O)CC3)C(=O)N(CC(C)(C)C)c3ccc(Cl)cc32)c1OC :: 18
CCC(C)[C@H](NC(=O)C[C@H]1O[C@H](c2cccc(OC)c2OC)c2cc(Cl)ccc2N(CC(C)(C)C)C1=O)C(=O)O (stereo partly shown) :: 11
COc1cccc([C@H]2O[C@H](CC(=O)NCP(=O)(O)O)C(=O)N(CC(C)(C)CO)c3ccc(Cl)cc32)c1OC :: 20
